Measured target: T1, murine BACE1 ECD
T1 construct: analyte of the Octet assay (200 nM) and enzyme of the first short substrate assay
T1 sequence (single chain, as listed by the source limits assumed): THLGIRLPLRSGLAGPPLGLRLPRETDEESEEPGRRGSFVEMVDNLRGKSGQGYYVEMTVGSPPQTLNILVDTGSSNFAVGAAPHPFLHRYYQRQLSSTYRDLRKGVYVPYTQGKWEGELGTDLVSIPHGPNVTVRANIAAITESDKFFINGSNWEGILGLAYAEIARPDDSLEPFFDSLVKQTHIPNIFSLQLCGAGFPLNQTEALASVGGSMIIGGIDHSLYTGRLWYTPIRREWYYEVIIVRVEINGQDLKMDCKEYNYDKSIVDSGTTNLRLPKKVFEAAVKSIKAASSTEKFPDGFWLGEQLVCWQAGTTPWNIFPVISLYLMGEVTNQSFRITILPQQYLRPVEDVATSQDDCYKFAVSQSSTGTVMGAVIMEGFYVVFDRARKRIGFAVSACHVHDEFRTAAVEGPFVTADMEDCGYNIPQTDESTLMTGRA
Test name: Octet, pH 5.0;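 note: antibodies captured on anti-human capture sensor tips, dissociation monitored in PBS with BSA buffer, kinetics fitted with a one-to-one binding model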
Measured attribute: Kd (nM)
Answers are plain numbers, in nM.

>  <Binder>
5905 (antibody, V domains shown, anti-BACE1 IgG) VH: QLQLQESGPGLVKPSETLSLTCTVSGGSISWSSYYWSWIRQPPGKGLEWIGSIYRSGRTYYNPSLKSRVTISVDTSKNQFSLKLSSVTAADTAVYYCARVGHGISYFDLWGRGTLVTVSS VL: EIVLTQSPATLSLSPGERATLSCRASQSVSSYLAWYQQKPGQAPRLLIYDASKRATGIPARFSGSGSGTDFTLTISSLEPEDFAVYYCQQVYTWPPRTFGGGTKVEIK

>  <Kd / nM>
1.1

$$$$

[Q] Find the measured Kd of 5891 (antibody, V domains shown, anti-BACE1 IgG) VH: QVQLVQSGAEVKKPGSSVKVSCKASGGTFSSYAISWVRQAPGQGLEWMGNIIPIFGPANYAQKFQGRVTITADESTSTAYMELSSLRSEDTAVYYCARSGGTKYGMLDVWGQGTMVTVSS VL: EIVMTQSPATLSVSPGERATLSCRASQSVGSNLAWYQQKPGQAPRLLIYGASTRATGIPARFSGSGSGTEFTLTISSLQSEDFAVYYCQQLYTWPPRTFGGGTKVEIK and report it.
[A] 1.1
